Test system: Zika virus NS2B-NS3 protease (linked construct)
ASSAY REMARKS: Primary screen NINDS Rhodamine qHTS for Zika virus inhibitors (AID 1347160); further: nearly all actives have a fitted effect of over 55% in size; further: potency means the concentration at half of the fitted maximal effect
MEASUREMENT CONDITIONS: purified NS2B-NS3 protease, Rhodamine110 substrate fluorescence; series mostly up to 33.1 µM
Inconclusive results are not listed. The source made the active and inactive calls. The call rests on the fitted dose curve; in most records, active means well fitted inhibition curve with a large enough effect; inconclusive means small, poorly fitted or top-dose-only effect; inactive means no such curve, though single readings can be large or run the other way.
ATTRIBUTE MEASURED: Potency

Would you please look over these solved cases?
CC1C2=CC(=O)OC2(O)CC2C1CCC1C(C)(C)CCC(O)C21C (configuration not stated)    inactive
CC(=O)OC1C(O)C(C)(O)C(/C=C/C(=O)O)C2(C)CCCC(C)(C)C12 (configuration not stated)    inactive
CC1=CC(=O)C2C(C)(C)CCC[C@]2(C)[C@H]1CC[C@H](C)CC(=O)O (some centres not stated)    inactive
CCC(C)/C=C(C)/C=C/C(=O)C1CCC(O)C(C)(O)C1=O (configuration not stated)    25.1 µM (active)
COc1cc(/C=C/C(=O)O[C@@H]2O[C@H](CO)[C@@H](O)[C@H](O)[C@H]2O)ccc1O    8.91 µM (active)

In: Name the recorded Potency of the item COc1c2c(c(C)c3c1C(=O)OC3)OC1(C)CC(O)C34OC(O)(CCC3(C)C1C2)OC4(C)C (configuration not stated) in your answer.
Out: inactive

In: Name the recorded Potency of the item `O=C(N[C@@H]1CC[C@@H](c2cccc(F)c2F)CN(CC(F)(F)F)C1=O)N1CCC(n2c(=O)[nH]c3ncccc32)CC1` in your answer.
Out: inactive
